All figures here come from PubChem BioAssay (NCI).

Items are presented alongside their recorded TGI.
- Tested on: SF-539 CNS
- METHOD_SUMMARY: NCI tumour cell line growth inhibition, 48 h
MEASURED_PARAMETER: TGI (µM)

                        structure_as_smiles  measured_parameter  measurement_units  censoring_operator  obs_value
0  Clc1ccc(-c2c(C3=NCCN3)nnn2-c2ccc(Cl)cc2)cc1                 TGI                 µM                   =       34.2
1  Nc1c(C(=O)N/N=C/c2ccc(-c3ccc(Cl)cc3)o2)cnn1-c1ccnc2c(C(F)(F)F)cccc12                 TGI                 µM                   >        100
2  Cc1cccc(NC(=O)/C=C/c2ccc(N(CCC#N)CCC#N)cc2C)c1                 TGI                 µM                   >        100
3      COc1ccc(CNc2c3ccccc3nc3ccccc23)cc1OC                 TGI                 µM                   =       11.3
4  CC(=O)O[C@@H]1C[C@]2(C(C)C)O[C@@]1(C)[C@@H]1CCC(C)=C1[C@@H]2OC(=O)/C=C/c1ccccc1                 TGI                 µM                   >        100
